meta.source: patent US20200317779A1

- test.system: recombinant human CD3ε/δ heterodimer (human) (UniProt P07766)
- Sequence (P07766 23-126, stated change not applied, chain 1 of 2): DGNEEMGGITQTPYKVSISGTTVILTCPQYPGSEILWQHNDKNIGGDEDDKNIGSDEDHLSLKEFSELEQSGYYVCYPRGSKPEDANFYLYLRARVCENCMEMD
- Sequence (P04234 22-105, stated change not applied, chain 2 of 2, further chain): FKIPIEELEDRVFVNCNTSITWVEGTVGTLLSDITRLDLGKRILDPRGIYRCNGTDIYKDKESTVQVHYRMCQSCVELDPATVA
- procedure.text: BLI (Octet), antigen on anti-Penta His sensor, antibody 50 nM
kon listing for selected binders.
Give the value, in units of M⁻¹ s⁻¹, as a plain number.

B16 (antibody, human IgG1, lambda, L234A L235A, V domains shown) VH: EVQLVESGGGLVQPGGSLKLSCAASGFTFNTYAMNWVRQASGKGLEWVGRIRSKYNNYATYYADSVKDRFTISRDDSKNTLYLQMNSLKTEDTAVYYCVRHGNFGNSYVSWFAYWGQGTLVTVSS VL: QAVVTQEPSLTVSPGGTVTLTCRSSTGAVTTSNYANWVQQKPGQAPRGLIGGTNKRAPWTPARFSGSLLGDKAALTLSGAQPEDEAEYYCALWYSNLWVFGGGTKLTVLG :: 322000

kon recorded for this binder, H16 (antibody, human IgG1, lambda, L234A L235A, V domains shown) VH: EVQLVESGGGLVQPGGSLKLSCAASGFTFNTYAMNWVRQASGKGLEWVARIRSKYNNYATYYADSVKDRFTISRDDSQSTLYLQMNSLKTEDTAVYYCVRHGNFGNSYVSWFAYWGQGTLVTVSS VL: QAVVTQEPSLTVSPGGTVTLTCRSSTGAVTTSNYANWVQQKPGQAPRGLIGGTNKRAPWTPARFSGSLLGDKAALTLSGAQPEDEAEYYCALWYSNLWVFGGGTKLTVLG , is 136000
